Sourced from ChEMBL document CHEMBL3988442

Listed below: Percent Effect values for each entry.
# Test system: Leishmania donovani
# assay.comment: Leishmania intramacrophage assay
# Assay type: functional, organism-based
# Set-up: scale not given: in the data most compounds retested in dose-response had high values
# particulars: 30.3 µM; […]
About 1,000 (1.4%) of roughly 69,000 compounds showed an effect of 50% or more. The sample holds strong results, similar compounds and a random draw of the others, so the mix is not that of the screen.
property.measured: Percent Effect (%)

compound: COc1cccc(-c2cc(C(=O)NCCCn3nc(C)cc3C)[nH]n2)c1
tgt: Leishmania donovani
output.unit: %
assay.result: 35.19

compound: COc1ccc(-c2noc([C@@H](C)NS(=O)(=O)CC(C)C)c2C(=O)O)cc1
tgt: Leishmania donovani
output.unit: %
assay.result: 14.82

compound: COC1COC2(CCN(CC3CC3)CC2)C1.O=C(O)C(F)(F)F (stereo unspecified)
tgt: Leishmania donovani
output.unit: %
assay.result: 18.41

compound: O=C(C1CCCO1)N1CCc2onc(-c3ccc(Cl)cc3)c2C1 (stereo unspecified)
tgt: Leishmania donovani
output.unit: %
assay.result: -19.46

compound: COc1cccc(-c2cc(C(=O)NCCCn3cnnc3)[nH]n2)c1
tgt: Leishmania donovani
output.unit: %
assay.result: 50.06

compound: O=S1(=O)CCC(c2nc(-c3cccc(Br)c3)no2)C1 (stereo unspecified)
tgt: Leishmania donovani
output.unit: %
assay.result: 2.793

---

Listed below: Percent Effect values for each entry.
# System: Leishmania donovani
# assay.comment: Leishmania intramacrophage assay
# Assay type: functional, organism-based
# Set-up: scale not given: in the data most compounds retested in dose-response had high values
# particulars: 30.3 µM; […]
The whole screen tested about 69,000 compounds, of which about 1,000 (1.4%) showed an effect of 50% or more. This is one part of a sample in which strong results are shown more often than they occur.
property.measured: Percent Effect (%)

molecule: Cc1nc2c(c(NCCc3nc4c(s3)CCCC4)n1)CCNCC2
output.unit: %
assay.result: 49.04
--
molecule: CCC(CO)NCc1ccc(-c2ccc(Br)cc2)o1.Cl (configuration not stated)
output.unit: %
assay.result: 86.07
--
molecule: CC(O)c1cccc(Nc2nc(NCCO)c3ccccc3n2)c1 (configuration not stated)
output.unit: %
assay.result: 37.25
--
molecule: CCOc1ccc(C(C)Nc2ncnc3c2CCNC3)cc1OCC (configuration not stated)
output.unit: %
assay.result: 19.33
--
molecule: CNS(=O)(=O)CC1CCCN1C(=O)c1ccc(C)c(C)c1 (configuration not stated)
output.unit: %
assay.result: -9.061
--
molecule: CC(CO)NC(=O)c1ccc2[nH]/c(=N\S(C)(=O)=O)sc2c1 (configuration not stated)
output.unit: %
assay.result: -35.22
--
molecule: O=C(NCc1ccco1)[C@H]1CC[C@@H]2[C@@H](CCN2Cc2nccs2)O1.O=C(O)C(F)(F)F
output.unit: %
assay.result: -4.08
--
molecule: CCS(=O)(=O)N1CCC2(CC1)COC(COc1cccnc1)C2.O=C(O)C(F)(F)F (configuration not stated)
output.unit: %
assay.result: 15.1
--
molecule: Cc1ccoc1C(=O)N1Cc2c(Cn3ccnc3)nn(C)c2C1.O=C(O)C(F)(F)F
output.unit: %
assay.result: 12.09
--
molecule: CC(Nc1ncnc2c1CCNC2)c1ccc(C(C)(C)C)cc1 (configuration not stated)
output.unit: %
assay.result: 88.55
--
molecule: Cn1nc(Cn2ccnc2)c2c1CN(Cc1ccoc1)C2.O=C(O)C(F)(F)F.O=C(O)C(F)(F)F
output.unit: %
assay.result: 2.195
--
molecule: CCC(CO)NCc1ccc(-c2ccccc2)o1.Cl (configuration not stated)
output.unit: %
assay.result: 7.098
--
molecule: OC(CNc1ncnc2c1CCNCC2)C(F)(F)F (configuration not stated)
output.unit: %
assay.result: 26.97
--
molecule: CN(C)C(=O)CN1C[C@@H]2CC[C@H](C1)N(C(=O)CCCn1cncn1)C2
output.unit: %
assay.result: 3.091
--
molecule: CNS(=O)(=O)c1cccc(C(C)NCc2ccc(C)c(C)c2)c1 (configuration not stated)
output.unit: %
assay.result: 17.01
--
molecule: CC(C)n1cnnc1SCCN(C)c1ccccc1
output.unit: %
assay.result: -1.184
--
molecule: CC(=O)Nc1nc(CS(=O)(=O)CCCc2ccccc2)cs1
output.unit: %
assay.result: 22.96
--
molecule: Cc1ccccc1C(CNc1ncnc2c1CCNCC2)N(C)C (configuration not stated)
output.unit: %
assay.result: -7.029
--
molecule: CCC(CO)NCc1ccc(-c2ccc(Cl)cc2)o1.Cl (configuration not stated)
output.unit: %
assay.result: 78.06
--
molecule: CCn1nnc(NCc2ccc(-c3ccc(Br)cc3)o2)n1
output.unit: %
assay.result: 4.739
--
molecule: CCOCC1c2c(cnn2CC2CC2)CCN1C(=O)c1ccncn1.O=C(O)C(F)(F)F (configuration not stated)
output.unit: %
assay.result: -17.31
--
molecule: COc1c(Cl)cccc1NCc1csc(C)n1
output.unit: %
assay.result: -4.371
--
molecule: CCCC(=O)Nc1ccc(CC(=O)N(C)CCc2cn[nH]c2)cc1
output.unit: %
assay.result: 12.21
--
molecule: C[C@H]1C[C@H]2CN(C(=O)c3cccc4c3OCCO4)CC[C@H]2O1
output.unit: %
assay.result: -11.14
--
molecule: CCC(CO)NCc1ccc(-c2ccccc2F)o1 (configuration not stated)
output.unit: %
assay.result: 4.793
--
molecule: CC(Nc1ncnc2c1CCNC2)c1ccc2c(c1)CCCC2 (configuration not stated)
output.unit: %
assay.result: 82.26
--
molecule: OC(CNc1nc(C2CCCC2)nc2c1CCNCC2)C(F)(F)F (configuration not stated)
output.unit: %
assay.result: 100.7
--
molecule: Cc1ccccc1C(CNc1ncnc2c1CCNC2)N(C)C (configuration not stated)
output.unit: %
assay.result: -14.27
--
molecule: NC(=O)c1ccnc(N2CCCC(CO)(Cc3ccc(F)cc3)C2)c1 (configuration not stated)
output.unit: %
assay.result: 16.75
--
molecule: Cc1ccc(-c2[nH]c3ccccc3c2C(=O)O)c(C)c1
output.unit: %
assay.result: 12.49
--
molecule: C[C@@H](CO)NC(=O)c1ccc2nc(NS(C)(=O)=O)sc2c1
output.unit: %
assay.result: 55.63
--
molecule: CCC(C)Oc1ccc(CNCCNS(C)(=O)=O)cc1Cl (configuration not stated)
output.unit: %
assay.result: 32.76
--
molecule: O=C(N1CCCC1)N1CCc2onc(COc3cccnc3)c2C1.O=C(O)C(F)(F)F
output.unit: %
assay.result: 0.9186
--
molecule: Cc1nc(COC(=O)c2cccc3c2OCCO3)cs1
output.unit: %
assay.result: -13.85
--
molecule: CSC(C)(C)CNC(=O)NC1CCC1
output.unit: %
assay.result: -4.731
--
molecule: Cc1cnc(N2CCc3onc(COc4cccnc4)c3C2)nc1
output.unit: %
assay.result: 77.52
--
molecule: COc1c(Cl)cccc1NCc1csc(NC(C)=O)n1
output.unit: %
assay.result: 71.24
--
molecule: COC(=O)N1CCCC(C(=O)NCCc2c[nH]c3cc(C)ccc23)C1 (configuration not stated)
output.unit: %
assay.result: 6.757
--
molecule: NCc1ccccc1Sc1ccc(O)cc1.O=C(O)/C=C\C(=O)O
output.unit: %
assay.result: 18.14
--
molecule: CCC(CO)NCc1ccc(-c2ccc(F)c(Cl)c2)o1.Cl (configuration not stated)
output.unit: %
assay.result: 76.93
--
molecule: O=C(CCN1CCCC(CO)(CC2CC2)C1)NCc1cccc(Cl)c1 (configuration not stated)
output.unit: %
assay.result: 10.86
--
molecule: Cc1nc(C(C)Nc2ncnc3c2CCNCC3)c(C)s1 (configuration not stated)
output.unit: %
assay.result: 9.224
--
molecule: Cc1ccccc1C(Nc1ncnc2c1CCNC2)c1ccccc1 (configuration not stated)
output.unit: %
assay.result: 61.26
--
molecule: Cc1nn(C)c2c(N(C)Cc3cccs3)nc(C3CC3)nc12
output.unit: %
assay.result: 56.51
--
molecule: CCNC(=O)NC(C)c1nc(-c2ccc(Br)cc2)no1 (configuration not stated)
output.unit: %
assay.result: 26.95
--
molecule: CCC(C)Oc1ccc(CNCCNC(C)=O)cc1Cl (configuration not stated)
output.unit: %
assay.result: 40.54
--
molecule: Cc1nn(CC(=O)NCCc2ccncc2)c(=O)n1Cc1ccccc1
output.unit: %
assay.result: 4.169
